Consider the following molecules; for each one, report its CC50.
- Test system: K-562
- ASSAY: SRB colorimetric cell growth inhibition assay, K-562
- Assay type: cell-based
- CONDITION_SET: Homo sapiens, K562, read-out: LC50 K-562, K-562; cell killing (cytotoxic effect)
Numbers only, in µM.

Take a look at these entries with their results.
COc1cc(-c2c3n(c4c(=O)oc5cc(OC(=O)[C@@H]6CCCN6)c(OC)cc5c24)CCc2cc(OC(=O)[C@@H]4CCCN4)c(OC)cc2-3)ccc1OC(=O)[C@@H]1CCCN1 :: 8.81
COc1cc(-c2c3c4cc(OC)c(OC(=O)[C@@H](N)CO)cc4oc(=O)c3n3ccc4c(OC(=O)[C@@H](N)CO)c(OC)c(OC)cc4c23)ccc1OC(=O)[C@@H](N)CO :: 4.18
COc1cc(-c2c3n(c4c(=O)oc5cc(OC(=O)[C@@H](N)C(C)C)c(OC)cc5c24)CCc2c-3cc(OC)c(OC)c2OC(=O)[C@@H](N)C(C)C)ccc1OC(=O)[C@@H](N)C(C)C :: 8.01

Provide the reported CC50 of each entry below, same order.
1. COc1cc(-c2c3c4cc(OC)c(O)cc4oc(=O)c3n3ccc4cc(O)c(OC)cc4c23)ccc1O [Compound 3, lamellarin D, reference compound]
2. COc1cc(-c2c3c4cc(OC)c(OC(=O)[C@@H](N)C(C)C)cc4oc(=O)c3n3ccc4c(OC(=O)[C@@H](N)C(C)C)c(OC)c(OC)cc4c23)ccc1OC(=O)[C@@H](N)C(C)C
3. COc1cc(-c2c3n(c4c(=O)oc5cc(OC(=O)[C@@H](N)C(C)C)c(OC)cc5c24)CCc2cc(OC(=O)[C@@H](N)C(C)C)c(OC)cc2-3)ccc1OC(=O)[C@@H](N)C(C)C

[reply]
[8.15, 10.7, 8.76]
